# maps each entry to its gamma-GTP
Species on record: Rattus norvegicus
Assay: Open TG-GATES - Regimen: Daily Repeat
Type: toxicity, organism-based, Sprague-Dawley
Parameters: regimen Daily Repeat, gender Male, age 6 weeks
Details: in vivo, po, 0 mg/kg, 72 h, tissue Plasma, route gavage, dose level Control, time 3 day
Number only, in IU/L; omit the unit.

Examples with their reported gamma-GTP follow.
COMPOUND	UNIT DESCRIPTOR	gamma-GTP
C1CCC(C(CC2CCCCN2)C2CCCCC2)CC1 (stereo not given)	IU/L	1
C#C[C@]1(O)CC[C@H]2[C@@H]3CCC4=Cc5oncc5C[C@]4(C)[C@H]3CC[C@@]21C	IU/L	1.6
CC(=O)Nc1nnc(S(N)(=O)=O)s1 [ACETAZOLAMIDE]	IU/L	1.8
Clc1c(Cl)c(Cl)c(Cl)c(Cl)c1Cl	IU/L	1.4
CN1C(C(=O)Nc2ccccn2)=C(O)c2sc(Cl)cc2S1(=O)=O	IU/L	1.2

Which gamma-GTP reading was recorded for the compound Cc1cccc(Nc2ccccc2C(=O)O)c1C ?
1

Let us now turn to CCOC(=O)[C@H](CCc1ccccc1)N[C@@H](C)C(=O)N1CCC[C@H]1C(=O)O
1.2

Let us now turn to CN(C)[C@@H]1C(O)=C(C(N)=O)C(=O)[C@@]2(O)C(O)=C3C(=O)c4c(O)cccc4[C@@](C)(O)[C@H]3C[C@@H]12
1.4

Let us now turn to CC(CN1c2ccccc2Sc2ccccc21)N(C)C (stereo not given)
1.8

Let us now turn to O=C(O)Cc1ccccc1Nc1c(Cl)cccc1Cl
1.2
